This collection of values is drawn from patent US20110028447A1.

Catalogue of Ki values
- test.target: human CB1 receptor (Homo sapiens, UniProt P21554)
- Sequence (P21554 whole entry): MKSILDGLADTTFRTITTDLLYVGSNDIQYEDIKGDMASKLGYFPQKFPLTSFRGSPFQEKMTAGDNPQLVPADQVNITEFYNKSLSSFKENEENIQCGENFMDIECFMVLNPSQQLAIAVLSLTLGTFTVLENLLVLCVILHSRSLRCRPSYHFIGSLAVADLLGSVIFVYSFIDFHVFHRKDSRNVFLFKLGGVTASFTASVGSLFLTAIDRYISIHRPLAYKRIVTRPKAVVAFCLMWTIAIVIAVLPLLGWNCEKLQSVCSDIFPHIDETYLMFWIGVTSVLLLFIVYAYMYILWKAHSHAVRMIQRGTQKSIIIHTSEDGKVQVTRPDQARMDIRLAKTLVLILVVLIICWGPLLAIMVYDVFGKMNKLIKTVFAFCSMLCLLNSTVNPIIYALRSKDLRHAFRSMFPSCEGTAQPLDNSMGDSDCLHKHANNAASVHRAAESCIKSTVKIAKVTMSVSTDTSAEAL
- assay.notes: Human CB1 receptor binding, [3H] CP-55,940 displacement on HEK cell membranes
- Set-up: expressed in transfected cells; host or cells: HEK cells, doxycycline-induced; membrane preparation
- study.conditions: CB1 Ki
Please give a number only; it is taken to be in nM.

Below are worked cases with known answers.
- structure.string: "CC(C)(C)[C@H](NC(=O)c1nn(Cc2ccc(F)cc2)c2ccccc12)C(=O)N[C@H]1C[C@@H](C(N)=O)C1"
  unit.info: "nM"
  Ki: 5.8
- structure.string: "CC(C)(C)[C@H](NC(=O)c1nn(Cc2ccc(C(F)(F)F)cc2)c2ccccc12)C(=O)NCC(N)=O"
  unit.info: "nM"
  Ki: 132
- structure.string: "CC(C)(C)[C@H](NC(=O)c1nn(Cc2ccc(F)cc2)c2ccccc12)C(=O)N1CCC[C@@H]1C(N)=O"
  unit.info: "nM"
  Ki: 45.8

Now, please, on to the next compound.
Ask: Param item = `CC(C)(C)[C@H](NC(=O)c1nn(Cc2ccc(F)cc2)c2ccccc12)C(=O)N1CCC(F)(F)C1` ; retrieve measured Ki.
Result: 2.2
